- Test System: EGFR del19 (Homo sapiens (Human), UniProt P00533, DEL746-750)
- Sequence (P00533 other isoform, or with tags, fused parts or gaps del 1-668/del 746-750 limits assumed): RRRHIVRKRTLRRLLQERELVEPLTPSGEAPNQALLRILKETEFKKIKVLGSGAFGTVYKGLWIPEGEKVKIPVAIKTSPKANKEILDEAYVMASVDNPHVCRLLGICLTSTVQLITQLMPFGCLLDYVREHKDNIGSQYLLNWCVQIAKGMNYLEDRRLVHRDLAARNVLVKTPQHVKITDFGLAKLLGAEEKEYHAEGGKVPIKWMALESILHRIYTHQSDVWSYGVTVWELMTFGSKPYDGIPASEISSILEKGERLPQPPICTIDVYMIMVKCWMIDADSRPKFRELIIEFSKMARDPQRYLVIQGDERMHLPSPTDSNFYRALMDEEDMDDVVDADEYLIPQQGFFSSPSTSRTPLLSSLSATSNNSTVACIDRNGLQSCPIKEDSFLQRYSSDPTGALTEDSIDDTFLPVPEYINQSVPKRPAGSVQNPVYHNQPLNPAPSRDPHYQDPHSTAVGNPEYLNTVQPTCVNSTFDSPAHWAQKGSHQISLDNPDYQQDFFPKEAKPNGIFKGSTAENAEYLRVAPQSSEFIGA
- Measurement Description: HTRF inhibitory activity against EGFR mutant enzyme (EGFR del19)
- Assay type: biochemical
- Details: recombinant enzyme, 37° C. for 2 hours
The entries below come with measured IC50 values attached.

Please review the entries below; each comes with its answer.
C=CC(=O)Nc1cc(Nc2ncc(Cl)c(Nc3cccc(C)c3N(C)S(C)(=O)=O)n2)c(OC)cc1N(C)CCN(C)C | < 1 nM
C=CC(=O)Nc1cc(Nc2ncc(Cl)c(Nc3cccc4c3N(S(C)(=O)=O)CC4)n2)c(OC)cc1N(C)CCN1CCC1 | < 1 nM
C=CC(=O)Nc1cc(Nc2ncc(Cl)c(Nc3cccc4c3N(S(C)(=O)=O)CC4)n2)c(OC)cc1N(C)CCNC | < 1 nM
C=CC(=O)Nc1cc(Nc2ncc(F)c(Nc3ccccc3NS(=O)(=O)CCC)n2)c(OC)cc1N(C)CCN(C)C | 2 nM
C=CC(=O)Nc1cc(Nc2ncc(Cl)c(Nc3cccc(Cl)c3NS(C)(=O)=O)n2)c(OC)cc1N(C)CCN(C)C | < 1 nM

Exam item: State the recorded IC50 for this entry: `C=CC(=O)Nc1cc(Nc2ncc(Cl)c(Nc3cccc4c3N(S(C)(=O)=O)CC4)n2)c(OC)cc1N(C)CCN1CCCC1`
Marked response: < 1 nM

Exam item: Entry `C=CC(=O)Nc1cc(Nc2ncc(Cl)c(Nc3ccc4nccnc4c3N(C)S(C)(=O)=O)n2)c(OC)cc1N(C)CCN(C)C` please
Marked response: < 1 nM

Exam item: Entry `C=CC(=O)Nc1cc(Nc2ncc(Cl)c(Nc3cccc(C)c3NS(C)(=O)=O)n2)c(OC)cc1N(C)CCN(C)C` please
Marked response: < 1 nM

Exam item: Entry `C=CC(=O)Nc1cc(Nc2ncc(Cl)c(Nc3cccc(CC)c3NS(=O)(=O)CC)n2)c(OC)cc1N(C)CCN(C)C` please
Marked response: < 1 nM

Exam item: Entry `C=CC(=O)Nc1cc(Nc2ncc(C(=O)OC(C)C)c(Nc3cccc4c3N(S(C)(=O)=O)CCC4)n2)c(OC)cc1N(C)CCN(C)C` please
Marked response: < 1 nM

# credit: patent US20240343694A1
